Test system: SK-MEL-5 melanoma
Experiment: NCI tumour cell line growth inhibition, 48 h
measured.parameter: TGI

Query (compound): CCN(C(=N)C#N)c1ccccc1 ; field requested: TGI
> 100 µM

Query (compound): CC1(F)C=CC(=O)C=C1 ; field requested: TGI
> 100 µM

Query (compound): CCCCC1CC(c2ccc(Cl)cc2)=NO1 (stereo unspecified) ; field requested: TGI
> 100 µM

Query (compound): CCOC(=O)Cc1csc(NC(=O)COC(=O)c2ccc(N)cc2)n1 ; field requested: TGI
> 100 µM

Query (compound): COc1cccc(/C=C/c2ccc(S(N)(=O)=O)cc2)c1 ; field requested: TGI
66.8 µM

Query (compound): COc1ccc(N2C(=O)C3c4[nH]c5ccccc5c4C4CCC(c5ccccc5)CC4C3C2=O)cc1 (stereo unspecified) ; field requested: TGI
> 87.8 µM
